target: SHP2 protein (Homo sapiens, UniProt Q06124); assay: Measurement of SHP2 protein degradation in KYSE-520 cells (western blotting); type: cell-based; set-up: endogenous in cells; conditions: 100 nM, 24 hours
Sequence (Q06124 whole entry): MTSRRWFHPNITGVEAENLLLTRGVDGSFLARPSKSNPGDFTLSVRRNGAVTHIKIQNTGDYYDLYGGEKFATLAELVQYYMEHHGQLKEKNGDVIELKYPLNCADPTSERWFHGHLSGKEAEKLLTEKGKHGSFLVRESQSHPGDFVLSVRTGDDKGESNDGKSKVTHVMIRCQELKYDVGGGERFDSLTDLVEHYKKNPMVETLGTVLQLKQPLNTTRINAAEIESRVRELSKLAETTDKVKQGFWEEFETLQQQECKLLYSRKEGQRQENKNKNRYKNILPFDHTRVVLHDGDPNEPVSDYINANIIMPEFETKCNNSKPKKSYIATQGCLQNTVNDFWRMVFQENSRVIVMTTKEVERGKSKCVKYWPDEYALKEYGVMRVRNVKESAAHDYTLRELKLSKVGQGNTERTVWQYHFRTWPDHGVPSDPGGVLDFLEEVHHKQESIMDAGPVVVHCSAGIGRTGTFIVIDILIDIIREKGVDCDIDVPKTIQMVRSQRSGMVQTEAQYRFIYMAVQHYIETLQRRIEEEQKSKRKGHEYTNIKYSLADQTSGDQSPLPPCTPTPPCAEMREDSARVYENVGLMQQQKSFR
Entries annotated with measured SHP2 degradation (%) 100 nM
Express it in %; write the number only.

>>> obs_value("Cc1ncsc1-c1ccc(CNC(=O)[C@@H]2C[C@@H](O)CN2C(=O)[C@@H](NC(=O)C2(F)CC2)C(C)(C)C)c(OCCCCCCN2CC(C(=O)Nc3cccc(Sc4cnc(N5CCC(C)(CN)CC5)cn4)c3Cl)C2)c1")
31.5
>>> obs_value("Cc1ncsc1-c1ccc(CNC(=O)[C@@H]2C[C@@H](O)CN2C(=O)[C@@H](NC(=O)C2(F)CC2)C(C)(C)C)c(OCCCCCC(=O)N2CCC(CCCC(=O)Nc3cccc(Sc4cnc(N5CCC(C)(CN)CC5)cn4)c3Cl)CC2)c1")
83.2
>>> obs_value("Cc1ncsc1-c1ccc(CNC(=O)[C@@H]2C[C@@H](O)CN2C(=O)[C@@H](NC(=O)C2(F)CC2)C(C)(C)C)c(OCCCN2CCC(CC(=O)Nc3cccc(Sc4cnc(N5CCC(C)(CN)CC5)cn4)c3Cl)CC2)c1")
82.4

# next compound below
Name the reported SHP2 degradation (%) 100 nM value associated with the compound Cc1ncsc1-c1ccc(CNC(=O)[C@@H]2C[C@@H](O)CN2C(=O)[C@@H](NC(=O)C2(F)CC2)C(C)(C)C)c(OCCCN2CCC(C(=O)Nc3cccc(Sc4cnc(N5CCC(C)(CN)CC5)cn4)c3Cl)CC2)c1
64.5

====

target: SHP2 protein (Homo sapiens, UniProt Q06124); assay: Measurement of SHP2 protein degradation in MV-4-11 cells (western blotting); type: cell-based; design: endogenous in cells; host or cells: MV-4-11; settings: MV-4-11 cells, 100 nM, 24 hours
Attribute: SHP2 degradation (%) 100 nM
Entry rule: numbers only, all in %.

Solved entries (count: 5):
>>> obs_value("Cc1ncsc1-c1ccc(CNC(=O)[C@@H]2C[C@@H](O)CN2C(=O)[C@@H](NC(=O)C2CC2)C(C)(C)C)c(OCCN2CCN(CC(=O)Nc3cccc(Sc4cnc(N5CCC(C)(CN)CC5)cn4)c3Cl)C(=O)C2)c1 [Example 79]")
98.6
>>> obs_value("Cc1ncsc1-c1ccc(CNC(=O)[C@@H]2C[C@@H](O)CN2C(=O)[C@@H](NC(=O)C2(F)CC2)C(C)(C)C)c(OCCCN2CCC(O)(CC(=O)Nc3cccc(Sc4cnc(N5CCC(C)(CN)CC5)cn4)c3Cl)CC2)c1 [Example 20]")
99.0
>>> obs_value("Cc1ncsc1-c1ccc(CNC(=O)[C@@H]2C[C@@H](O)CN2C(=O)[C@@H](NC(=O)C2(F)CC2)C(C)(C)C)c(OCCC2CCN(C(=O)C(C)(C)C(=O)Nc3cccc(Sc4cnc(N5CCC(C)(CN)CC5)cn4)c3Cl)CC2)c1 [Example 49]")
10.6
>>> obs_value("Cc1ncsc1-c1ccc(CNC(=O)[C@@H]2C[C@@H](O)CN2C(=O)[C@@H](NC(=O)C2(F)CC2)C(C)(C)C)c(OCCC2CCN(CCC(=O)Nc3cccc(Sc4cnc(N5CCC(C)(CN)CC5)cn4)c3Cl)CC2)c1 [Example 74]")
80.5
>>> obs_value("Cc1ncsc1-c1ccc(CNC(=O)[C@@H]2C[C@@H](O)CN2C(=O)[C@@H](NC(=O)C2(F)CC2)C(C)(C)C)c(OCCCC2CCN(C(=O)CC(=O)Nc3cccc(Sc4ncc(N5CCC(C)(N)CC5)nc4N)c3Cl)CC2)c1 [Example 40]")
95.0

Item Cc1ncsc1-c1ccc(CNC(=O)[C@@H]2C[C@@H](O)CN2C(=O)[C@@H](NC(=O)C2(F)CC2)C(C)(C)C)c(OC2CC3(CCN(c4ccc(C(=O)Nc5cccc(Sc6cnc(N7CCC(C)(CN)CC7)cn6)c5Cl)nn4)CC3)C2)c1 [Example 88] with SHP2 protein (Homo sapiens, UniProt Q06124) - SHP2 degradation (%) 100 nM?
66.1

Reported SHP2 degradation (%) 100 nM for SHP2 protein (Homo sapiens, UniProt Q06124), given Cc1ncsc1-c1ccc(CNC(=O)[C@@H]2C[C@@H](O)CN2C(=O)[C@@H](NC(=O)C2(F)CC2)C(C)(C)C)c(OCCCN2CCC(CC(=O)Nc3cccc(Sc4cnc(N5CCC(C)(N)CC5)cn4)c3Cl)CC2)c1 [Example 8] ?
92.6

For SHP2 protein (Homo sapiens, UniProt Q06124), provide SHP2 degradation (%) 100 nM of Cc1ncsc1-c1ccc(CNC(=O)[C@@H]2C[C@@H](O)CN2C(=O)[C@@H](NC(=O)C2CC2)C(C)(C)C)c(OCCN2CCN(C(=O)CC(=O)Nc3cccc(Sc4cnc(N5CCC(C)(CN)CC5)cn4)c3Cl)CC2)c1 [Example 56] please.
98.9

The reported numbers originate from patent US20250230154A1.
